Origin of values: patent US12077503B2

Test system: pigweed (Amaranthus retroflexus)
Assay: Test A preemergence
Format: in vivo
Conditions: Preemergence, 500 g ai/ha, visual injury approx. 10 d
From the text: […]
Observation Type: Pigweed plant response rating (0 to 100 scale, 0 is no effect, 100 is complete control)

| Compound | Target Or System | Reported Result |
| --- | --- | --- |
| O=C(Nc1cccc(F)c1F)C1C(=O)N(C2C=CCCC2)CC1c1cccc(C(F)(F)F)c1 (centres unmarked) | pigweed (Amaranthus retroflexus) | 0 |
| O=C1NCC(c2cc(F)cc(Cl)c2)C1C(=O)Nc1ccccc1F (centres unmarked) | pigweed (Amaranthus retroflexus) | 0 |
| O=C1NCC(c2cc(Cl)sc2Cl)C1C(=O)Nc1cccc(F)c1F (centres unmarked) | pigweed (Amaranthus retroflexus) | 0 |
| CN1CC(c2ccc(Br)cc2)C(C(=O)Nc2ccccc2F)C1=O (centres unmarked) | pigweed (Amaranthus retroflexus) | 80 |
| O=C1NCC(c2ccc(Oc3ccccc3)cc2)C1C(=O)Nc1ccc(F)cc1F (racemic) | pigweed (Amaranthus retroflexus) | 0 |
| O=C1NCC(c2c(F)cccc2F)C1C(=O)Nc1ccccc1F (racemic) | pigweed (Amaranthus retroflexus) | 0 |
| CN1CC(c2ccc3c(c2)OC(F)(F)O3)C(C(=O)Nc2ccccc2S(C)(=O)=O)C1=O (centres unmarked) | pigweed (Amaranthus retroflexus) | 90 |
| Cc1c(F)ccc(NC(=O)C2C(=O)NCC2c2cccc(C(F)(F)F)c2)c1F (centres unmarked) | pigweed (Amaranthus retroflexus) | 0 |
